# System: Corynebacterium amycolatum
# method-notes: Antimicrobial activity against Corynebacterium amycolatum isolates by CLSI M45-A protocol based microdilution method
# Type: functional
observed-property: MIC50

Field MIC50 (entry C[C@H]1COc2c(N3CCN(C)CC3)c(F)cc3c(=O)c(C(=O)O)cn1c23.C[C@H]1COc2c(N3CCN(C)CC3)c(F)cc3c(=O)c(C(=O)O)cn1c23.O ) reads > 32 µg/mL

Field MIC50 (entry CN(C)[C@@H]1C(O)=C(C(N)=O)C(=O)[C@@]2(O)C(O)=C3C(=O)c4c(O)cccc4[C@@](C)(O)[C@H]3C[C@@H]12 ) reads 0.125 µg/mL

Field MIC50 (entry C[C@H]1c2cccc(O)c2C(=O)C2=C(O)[C@]3(O)C(=O)C(C(N)=O)=C(O)[C@@H](N(C)C)[C@@H]3[C@@H](O)[C@@H]21.O ) reads 0.06 µg/mL

Field MIC50 (entry CN(C)c1cc(NC(=O)CNC(C)(C)C)c(O)c2c1C[C@H]1C[C@H]3[C@H](N(C)C)C(O)=C(C(N)=O)C(=O)[C@@]3(O)C(O)=C1C2=O ) reads 0.125 µg/mL

Field MIC50 (entry CO/N=C(\C(=O)N[C@@H]1C(=O)N2C(C(=O)O)=C(COC(N)=O)CS[C@H]12)c1ccco1 ) reads 0.5 µg/mL

Field MIC50 (entry CN(C)c1ccc(O)c2c1C[C@H]1C[C@H]3[C@H](N(C)C)C(O)=C(C(N)=O)C(=O)[C@@]3(O)C(O)=C1C2=O ) reads 0.06 µg/mL

Field MIC50 (entry CCC[C@@H]1C[C@@H](C(=O)N[C@@H]([C@H]2O[C@H](SC)[C@H](O)[C@@H](O)[C@H]2O)[C@H](C)Cl)N(C)C1 ) reads > 16 µg/mL

Field MIC50 (entry CN[C@H](CC(C)C)C(=O)N[C@H]1C(=O)N[C@@H](CC(N)=O)C(=O)N[C@H]2C(=O)N[C@H]3C(=O)N[C@H](C(=O)N[C@H](C(=O)O)c4cc(O)cc(O)c4-c4cc3ccc4O)[C@H](O)c3ccc(c(Cl)c3)Oc3cc2cc(c3O[C@@H]2O[C@H](CO)[C@@H](O)[C@H](O)[C@H]2O[C@H]2C[C@](C)(N)[C@H](O)[C@H](C)O2)Oc2ccc(cc2Cl)[C@H]1O ) reads 0.25 µg/mL
